B1: GALNT9 (parent)
chain: FTQSGPIVSRATGRCLEVEMSKDA

variants of: B1; experiment: protein stability index of a GFP-peptide fusion (GPS, HEK-293T) (PSI 1-6); higher = more stable; details: c terminus: a fixed tail appended;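 also: lentivirally expressed fusions sorted by FACS into six bins by GFP to DsRed ratio, PSI derived from sequencing read proportions per bin multiplied by bin number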
Here the recorded protein stability index is given for each entry.
Measured metric: protein stability index

| Mutation descriptor | Experimental value |
| --- | --- |
| D23I | 1.57 |
| S9N | 2.06 |
| D23H | 2.3 |
| L16F | 2.37 |
| I7T | 2.36 |
| G13N | 2.41 |
| D23T | 1.84 |
| E19H | 1.62 |
| I7M | 1.78 |
| T2F | 3.05 |
| R10Q | 3.02 |
| A24H | 2.43 |
| R10Y | 2.44 |
| C15M | 2.78 |
| R14V | 1.71 |
| A11F | 1.06 |
| F1L | 2 |
| E19G | 2.19 |
| C15L | 4.19 |
| M20P | 3.38 |
| Q3A | 2.01 |
| T2L | 2.25 |
| G5D | 2.74 |
| G5V | 2.39 |
| S9L | 2.43 |
| Q3R | 1.48 |
| T2W | 1.43 |
| L16E | 3.65 |
| K22A | 3.13 |
| A24C | 2.34 |
| E19V | 1.45 |
| C15N | 3.75 |
| F1P | 1.87 |
| Q3F | 2.34 |
| K22I | 1.71 |
| F1Y | 2.03 |
| D23P | 1.92 |
| L16R | 3.09 |
| Q3S | 2.48 |
| K22L | 1.95 |
| R10F | 1.41 |
| S9A | 4.78 |
| V8W | 3.04 |
| T12R | 2.04 |
| P6N | 1.07 |
| V18E | 1.01 |
| P6T | 1.42 |
| A24R | 2.2 |
| T2E | 3.58 |
| L16P | 3.02 |
| E19S | 1.35 |
| Q3I | 1.58 |
| Q3E | 2.51 |
| F1N | 3.15 |
| G13T | 2.16 |
| G13D | 3.13 |
| G5S | 2.54 |
| G13R | 2.6 |
| L16S | 1.75 |
| S21F | 1.86 |
| L16I | 1.4 |
| L16G | 2.52 |
| K22H | 1.76 |
| V8N | 2.03 |
| L16H | 2.81 |
| T12N | 2.4 |
| L16Q | 2.81 |
| V8Q | 2.25 |
| S4T | 2.82 |
| Q3L | 1.84 |
| K22Q | 2.26 |
| T2Q | 2.35 |
| T2Y | 2.53 |
| R10T | 2.5 |
| I7H | 2.66 |
| G5F | 2.62 |
| Q3P | 1.34 |
| R10S | 3.5 |
| E17Q | 2.94 |
| F1C | 3.31 |
| L16W | 2.35 |
| S4G | 2.01 |
| K22D | 3.38 |
| K22R | 1.32 |
| A24Y | 1.75 |
| E19T | 1.22 |
| A24F | 1.34 |
| I7Q | 1.98 |
| M20K | 2.32 |
| E17C | 1.84 |
| A24L | 2.35 |
